Quick list: Rf per entry.
# Experimental Details: Retardation factor, Rf value of the compound using BuOH-AcOH-H20 at 4:1:1 ratio by ninhydrin
# Type: physicochemical
Reply briefly: the number, and no unit.

Use these answered entries as a reference point.
Task: Respond only with Rf recorded for CC(C)C[C@H](NC(=O)[C@@H](O)[C@@H](C)N)C(=O)O
Result: 0.27

Task: Respond only with Rf recorded for CC(C)C[C@@H](NC(=O)[C@H](O)[C@H](N)Cc1ccccc1)C(=O)O
Result: 0.37

Continuing:
Task: Respond only with Rf recorded for CC(C)C[C@H](NC(=O)[C@@H](O)[C@H](N)Cc1ccc(N)cc1)C(=O)O
Result: 0.25

Task: Respond only with Rf recorded for N[C@H](Cc1ccccc1)[C@H](O)C(=O)N[C@@H](CO)C(=O)O
Result: 0.2
